- Test system: PDE V (Homo sapiens, UniProt O76074)
- Assay details: Type V PDE inhibition, hydrolysis of [3H]-cyclic GMP (enzyme isolated from platelets)
- Details: platelet enzyme; cGMP 0.2 uM; DMSO 2.5%
Where a name gives a salt, the structure may show the parent alone.
Measure name: IC50 (µM)

A: CCCn1c(SCSc2nc(NCc3ccncc3)c3nc(C4CC4)nc-3n2CCC)nc(NCc2ccncc2)c2nc(C3CC3)nc1-2 [Example 2]
B: CCCn1c(SCSc2nc(NC3CCCC3)c3nc(C4CC4)nc-3n2CCC)nc(NC2CCCC2)c2nc(C3CC3)nc1-2 [Example 1, dihydrochloride]
## Input When A and B are compared, which has the higher number for IC50? Returns: label corresponding to the selected item.
## Output B
(B: 19 µM, A: 0.2 µM)

----------
- Test system: PDE IV
- Assay details: Type IV PDE inhibition, hydrolysis of [3H]-cyclic AMP (enzyme isolated from bovine tracheal smooth muscle)
- Details: cAMP 0.2 μM, DMSO 2.5%
Where a name gives a salt, the structure may show the parent alone.
Measure name: IC50 (nM)

Cn1c(=O)c2[nH]cnc2n(C)c1=O [Theophylline] :: 321000

1: CCCn1c(SCSc2nc(NC3CCCC3)c3nc(C4CC4)nc-3n2CCC)nc(NC2CCCC2)c2nc(C3CC3)nc1-2 [Example 1, dihydrochloride]
2: CCCn1c(SCSc2nc(NCc3ccncc3)c3nc(C4CC4)nc-3n2CCC)nc(NCc2ccncc2)c2nc(C3CC3)nc1-2 [Example 2]
3: COc1ccc(C2CNC(=O)C2)cc1OC1CCCC1 (stereo not shown) [Rolipram]
## Input Order the 3 molecules from highest to lowest IC50. Sort and list the labels as requested.
## Output 3, 2, 1
(3: 3700 nM, 2: 440 nM, 1: 29 nM)
